# System Tested: Clonorchis sinensis omega-class glutathione transferase 1 (CsGSTo1) (Clonorchis sinensis, UniProt A0A192IBN1)
# Construct: full-length recombinant (246 amino acids), His-tag removed; GenBank KX163088
# Sequence (A0A192IBN1 1-246): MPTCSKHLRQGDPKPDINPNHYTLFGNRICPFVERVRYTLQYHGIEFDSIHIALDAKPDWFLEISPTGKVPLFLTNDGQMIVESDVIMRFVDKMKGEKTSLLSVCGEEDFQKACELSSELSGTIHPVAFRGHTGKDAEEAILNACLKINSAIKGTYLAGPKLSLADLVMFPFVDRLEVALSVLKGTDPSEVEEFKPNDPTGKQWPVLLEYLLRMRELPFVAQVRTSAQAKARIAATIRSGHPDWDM
# Run Description: biochemical
# Parameters: DHAR activity inhibition of recombinant CsGSTo, absorbance at 265 nm; Ki from Lineweaver-Burk plots
# Measurement Conditions: ligand binding site (varied GSH), non-competitive
Observable: Ki (µM)

>>> obs_value("O=C(C1CCCCC1)N1CC(=O)N2CCc3ccccc3C2C1 (stereo not shown)")
46.8

These entries and their values trace back to paper PMC4906895.
